Sourced from ChEMBL document CHEMBL1129008

Answer each item with its documented pKB.
target: Histamine H3 receptor (Cavia porcellus) (UniProt Q9JI35); assay: Antagonistic activity at H3 receptor was assessed on guinea-pig longitudinal muscle strips subjected to electrical field stimulation; format: functional
Sequence (Q9JI35 whole entry): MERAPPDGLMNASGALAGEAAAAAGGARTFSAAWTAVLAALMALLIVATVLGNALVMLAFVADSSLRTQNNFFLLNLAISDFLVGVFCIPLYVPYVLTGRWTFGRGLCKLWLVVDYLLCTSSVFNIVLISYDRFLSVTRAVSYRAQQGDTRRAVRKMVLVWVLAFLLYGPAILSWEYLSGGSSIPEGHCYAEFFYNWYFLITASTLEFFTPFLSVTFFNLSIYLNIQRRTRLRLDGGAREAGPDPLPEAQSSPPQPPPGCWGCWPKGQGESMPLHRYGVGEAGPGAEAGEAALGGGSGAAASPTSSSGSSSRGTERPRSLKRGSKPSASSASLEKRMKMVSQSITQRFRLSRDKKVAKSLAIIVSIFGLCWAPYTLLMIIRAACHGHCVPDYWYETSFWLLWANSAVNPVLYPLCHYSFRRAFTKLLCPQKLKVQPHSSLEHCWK

Consider the following illustrative entries.
{"columns": ["COMPOUND_SMILES", "MEASURED_TARGET", "OBSERVED"],
 "data": [
  ["Clc1ccc(Cc2nc(CCc3c[nH]cn3)no2)cc1", "Histamine H3 receptor (Cavia porcellus) (UniProt Q9JI35)", 7],
  ["Clc1ccc(Cc2nnc(CCc3c[nH]cn3)s2)cc1", "Histamine H3 receptor (Cavia porcellus) (UniProt Q9JI35)", 7],
  ["N=C(NCc1ccc(Cl)cc1)SCCCc1c[nH]cn1", "Histamine H3 receptor (Cavia porcellus) (UniProt Q9JI35)", 9.9],
  ["Clc1ccc(Cc2n[nH]c(CCc3c[nH]cn3)n2)cc1", "Histamine H3 receptor (Cavia porcellus) (UniProt Q9JI35)", 5.7]
]}

Shifting focus to the molecule that follows.
Q: Provide value of pKB for this record tested with Histamine H3 receptor (Cavia porcellus) (UniProt Q9JI35): Clc1ccc(Cc2n[nH]c(CCCc3c[nH]cn3)n2)cc1
Ans: 7.4
